Here, each record is paired with measured pIC50 data.
- subject-of-test: G1 APOL1 (Homo sapiens, UniProt O14791, I384M/S342G)
- Construct: expressed in transfected cells
- Sequence (O14791 28-398 S342G/I384M): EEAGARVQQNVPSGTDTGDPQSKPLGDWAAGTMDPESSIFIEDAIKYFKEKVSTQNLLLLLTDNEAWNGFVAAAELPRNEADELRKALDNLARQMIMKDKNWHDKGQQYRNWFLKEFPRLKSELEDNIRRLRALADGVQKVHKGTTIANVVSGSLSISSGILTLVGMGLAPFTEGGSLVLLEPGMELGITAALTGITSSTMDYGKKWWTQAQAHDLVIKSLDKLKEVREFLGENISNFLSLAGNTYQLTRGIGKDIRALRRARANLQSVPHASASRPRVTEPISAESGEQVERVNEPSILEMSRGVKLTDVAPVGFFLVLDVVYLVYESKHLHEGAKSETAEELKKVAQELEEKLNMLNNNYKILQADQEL
- protocol-notes: Acute APOL1 Thallium Assay with Inducible Stable Clones of HEK 293 Cells
- Type: cell-based
- conditions-used: HEK 293 inducible stable clones, G1 APOL1; read-out: Thallium Assay (IC50)
pIC50: −log10 of the molar value.

Study these solved cases before continuing.
O=C(NCCc1c(-c2ccc(F)cc2)[nH]c2c(F)cc(F)cc12)NCC1CCCO1 (stereo not shown): < 6.00
C[C@H](NC(=O)CCc1c(-c2ccc(F)cc2)[nH]c2ccc(F)cc12)C(N)=O: < 6.00
O=C(CCc1c(-c2ccc(F)cc2)[nH]c2ccc(F)cc12)N[C@H]1CC[C@H]1O: 6.00 to 6.60

For `O=C(CCCc1c(-c2ccc(F)cc2)[nH]c2c(F)cc(F)cc12)N[C@H]1CCNC1=O` on G1 APOL1 (Homo sapiens, UniProt O14791, I384M/S342G), measured pIC50 was < 6.00

For `O=C(CCc1c(-c2ccc(F)cc2)[nH]c2c(F)cc(F)cc12)Nc1ccncc1` on G1 APOL1 (Homo sapiens, UniProt O14791, I384M/S342G), measured pIC50 was < 6.00

For `O=C(CCc1c(-c2ccc(F)cc2)[nH]c2c(F)cc(Cl)cc12)N[C@@H](CO)C(F)(F)F` on G1 APOL1 (Homo sapiens, UniProt O14791, I384M/S342G), measured pIC50 was > 6.60

For CC1(O)CCN(C(=O)CCc2c(-c3ccc(F)cc3)[nH]c3ccc(F)cc23)C1 (racemic) on G1 APOL1 (Homo sapiens, UniProt O14791, I384M/S342G), measured pIC50 was < 6.00

For `O=C1N[C@H](C(=O)NCCc2c(-c3ccc(F)cc3)[nH]c3c(F)cc(F)cc23)CS1` on G1 APOL1 (Homo sapiens, UniProt O14791, I384M/S342G), measured pIC50 was < 6.00

For `CC1(CNC(=O)NCCc2c(-c3ccc(F)cc3)[nH]c3c(F)cc(F)cc23)COC1` on G1 APOL1 (Homo sapiens, UniProt O14791, I384M/S342G), measured pIC50 was < 6.00

For CN1CC(NC(=O)OCCc2c(-c3ccc(F)cc3)[nH]c3c(F)cc(F)cc23)CC1=O (stereo not shown) on G1 APOL1 (Homo sapiens, UniProt O14791, I384M/S342G), measured pIC50 was < 6.00

For O=C(NCCc1c(-c2ccc(F)cc2)[nH]c2c(F)cc(F)cc12)C(O)C1CC1 (stereo not shown) on G1 APOL1 (Homo sapiens, UniProt O14791, I384M/S342G), measured pIC50 was 6.00 to 6.60

For `COC(=O)/C=C/c1c(-c2ccc(C#N)cc2)[nH]c2c(F)cc(F)cc12` on G1 APOL1 (Homo sapiens, UniProt O14791, I384M/S342G), measured pIC50 was < 6.00

For `O=C(CNC(=O)NCCc1c(-c2ccc(F)cc2)[nH]c2c(F)cc(F)cc12)NO` on G1 APOL1 (Homo sapiens, UniProt O14791, I384M/S342G), measured pIC50 was < 6.00
